ASSAY METHOD TEXT: inhibitors of TNFa-induced NFkB p65 translocation, primary screen, imaging, HUVEC, MLSMR starter and 10KST1 sets (AID 438);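 note: compound added about 3h40 before a 20 min TNFalpha stimulation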;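 for inhibition: signal is the nuclear over cytoplasmic p65 intensity ratio per well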
RUN PARAMETERS: HUVEC TNFa-induced p65 nuclear translocation; at 2 µM, stronger effect = higher value, 0% TNFa-plus-vehicle, 100% no-TNFa wells
Catalogue of inhibition readings, one per entry.
Give the value, in units of %, as a plain number.

Below, 6 compounds whose answers are already recorded.
# COMPOUND, inhibition, %
rows = [
    ("CCCC(=O)O[C@]1(C(=O)COC(C)=O)CC[C@H]2[C@@H]3C[C@H](F)C4=CC(=O)C=C[C@]4(C)[C@@]3(F)[C@@H](O)C[C@@]21C", -9.3),
    ("CC(C)(C)NCC(O)COc1cccc2c1C[C@H](O)[C@H](O)C2 (stereo partly specified)", 3.8),
    ("Cc1ccc2[nH]c3c(c2c1)CCCC3C(N)=O (stereo unspecified)", -27.5),
    ("CCC1=C(C(=O)OC)C(c2cc(OC)ccc2OC)C(C#N)=C(N)O1 (stereo unspecified)", -8.8),
    ("CCN1CCCC1Cn1cnc2c([nH]c3ccc(C)cc32)c1=O (stereo unspecified)", -6.8),
    ("Cn1c(OCc2cccnc2)nc2c1c(=O)n(Cc1ccc(Cl)cc1)c(=O)n2C", -7.1),
]

So for Brc1ccc(-c2cnc3n2CCCC3)cc1 , the logged inhibition turned out to be -4.2

Reported inhibition for c1ccc2[nH]c(-c3cscn3)nc2c1 was 2.5

Item: COC(=O)c1ccccc1N1C(=O)[C@@H]2C(c3ccc(Br)cc3)=NO[C@@H]2C1=O | inhibition: -12.6

====

inhibition reference
ASSAY METHOD TEXT: inhibitors of Chlamydomonas gravitaxis, primary screen, whole organism, Chlamydomonas reinhardtii, WT vs cilia-less mutant, absorbance, 96-well (AID 463189);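 note: 0% = wild type cc124 cells in DMSO and 100% = ciliumless bld1 mutant cells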
RUN PARAMETERS: OD600 absorbance, 2 days, at 10 µM, stronger effect = higher value
Value expressed in %; do not type the unit.

# COMPOUND, inhibition [%]
data = [
    ("Cc1ccc2nc(C(F)(F)F)c(C#N)c(N)c2c1", -8.78),
]

Lab note: CN(C)c1ccc(O)c2c1CC1CC3[C@@H](N(C)C)C(=O)C(C(N)=O)=C(O)[C@]3(O)C(=O)C1=C2O (some centres not stated) gave inhibition of 82.6

====

ASSAY METHOD TEXT: inhibitors of TNFa-induced NFkB p65 translocation, primary screen, imaging, HUVEC, MLSMR starter and 10KST1 sets (AID 438);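 note: compound added about 3h40 before a 20 min TNFalpha stimulation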
RUN PARAMETERS: HUVEC TNFa-induced p65 nuclear translocation; measured here: nuclei count (cytotoxicity indicator), at 2.08 µM
Category scheme (cell count): lo (below 500), med (500 to below 600), hi (600 or more)

# COMPOUND, CLASS NAME
data = [
    ("COc1cccc(-c2nn3c(-c4ccccn4)nnc3s2)c1", "hi"),
    ("CN1CCc2nc(SCC(=O)Nc3ccc(Cl)cc3)c(C#N)cc2C1", "lo"),
    ("CCN(CC)CCNC(=O)c1ccccc1N", "med"),
    ("Cc1c(O)c(CN2CCCC(C)C2)cc2c3c(c(=O)oc12)CCC3 (stereo unspecified)", "hi"),
    ("Nc1ncnc2c1ncn2[C@@H]1O[C@H](CO)[C@@H](O)[C@H]1O", "med"),
]

Consider the additional compound presented here.
Inquiry: Lab note: which band did O=C(CN1C(=O)c2ccccc2C1=O)NCc1ccncc1 land in?
Reply text: lo

====

ASSAY SYSTEM: Voltage-gated potassium channel subunit beta-2 (Rattus norvegicus) (UniProt P62483)
Sequence (P62483 whole entry, looked up): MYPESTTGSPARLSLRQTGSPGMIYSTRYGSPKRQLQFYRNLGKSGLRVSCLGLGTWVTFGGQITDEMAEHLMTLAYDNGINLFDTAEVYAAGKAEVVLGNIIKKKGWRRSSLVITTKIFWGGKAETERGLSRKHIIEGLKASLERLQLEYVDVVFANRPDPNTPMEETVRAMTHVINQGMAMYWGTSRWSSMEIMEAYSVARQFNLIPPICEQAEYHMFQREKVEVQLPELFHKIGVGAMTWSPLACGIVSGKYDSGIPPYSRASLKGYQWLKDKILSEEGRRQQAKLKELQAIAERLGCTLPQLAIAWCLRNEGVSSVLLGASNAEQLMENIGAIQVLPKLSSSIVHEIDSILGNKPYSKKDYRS
ASSAY METHOD TEXT: KvBeta positive modulators, primary screen, biochemical, NADPH fluorescence (AID 623);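 note: fluorescence intensity change per second fitted from 20 to 320 s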
RUN PARAMETERS: Recombinant KvBeta, NADPH fluorescence decrease slope, 10 min; at 10 µM; stronger effect = lower value
Quick rule for you: NADPH fluorescence slope under -0.0001 gets satisfied, anything else gets not satisfied.

Worked examples follow.
# MOLECULE, CLASS NAME
data = [
    ("CC(C)C1Cc2c(C#N)c(N)sc(=S)c2CO1 (configuration not stated)", "not satisfied"),
    ("Clc1ccc(-c2cn3c(n2)CCC3)cc1", "not satisfied"),
    ("Cc1csc(NC(=O)CSc2nsc(SCC(=O)Nc3nc(C)cs3)c2C#N)n1", "not satisfied"),
    ("Cc1cc(-c2ccc(F)cc2)nc2cc(C(N)=O)nn12", "satisfied"),
]

Inquiry: is_below(NADPH fluorescence slope, -0.0001) for Nc1nc(N)c2nc(-c3ccccc3)c(N)nc2n1 ?
Reply text: not satisfied

Inquiry: Determine if O=c1[nH]c(CN2CCCCC2)nc2c1C1(CCCCC1)Cc1ccccc1-2 shows NADPH fluorescence slope strictly lower than -0.0001.
Reply text: not satisfied

Inquiry: Determine whether this molecule shows NADPH fluorescence slope lower than -0.0001 (ties excluded): CCN(CC)CCN1C(=O)C(O)=C(C(=O)c2cccs2)C1c1ccccn1 (configuration not stated)
Reply text: satisfied

Inquiry: Just wondering, is NADPH fluorescence slope of S=c1[nH]nc(-c2ccco2)n1Cc1ccccc1 below -0.0001?
Reply text: satisfied

Inquiry: Hi there! Is NADPH fluorescence slope for CC(C)c1nc2n[nH]c(N)c2c2c1CCC2 below -0.0001, do you know?
Reply text: satisfied

Inquiry: # check: NADPH fluorescence slope < -0.0001 for Cn1c(=O)n(CCC(=O)O)c2ccccc21
Reply text: not satisfied

Inquiry: Confirm or reject: NADPH fluorescence slope of CC(C)(S)[C@@H](N)C(=O)O lies strictly below -0.0001
Reply text: not satisfied

Inquiry: Strictly below -0.0001: is that where NADPH fluorescence slope of CSc1nc(N)nc(SCC(=O)OC(C)C)c1C#N sits?
Reply text: not satisfied

====

ASSAY METHOD TEXT: DUSP6 inhibitors restoring Erk phosphorylation by chemical complementation, primary imaging in DUSP6-transfected HeLa (AID 609)
RUN PARAMETERS: HeLa MKP-3 transfected, phospho-Erk imaging KS statistic; measured here: cell density z-score; at 10 µM; cells stimulated with TPA for 15 min
MEASUREMENT LABEL: z-score
Response field accepts a number only; no unit should be typed.

# COMPOUND, z-score
records = [
    ("Cc1ccc(C2C(C(=O)c3cc4ccccc4o3)=C(O)C(=O)N2CCN(C)C)o1 (stereo unspecified)", -1.49),
]

Measured z-score of N#Cc1c(N)n(CCOC(=O)c2cccc(Br)c2)c2nc3ccccc3nc12 : 1.33

====

ASSAY METHOD TEXT: inhibitors of Chlamydomonas gravitaxis, primary screen, whole organism, Chlamydomonas reinhardtii, WT vs cilia-less mutant, absorbance, 96-well (AID 463189);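 note: 0% = wild type cc124 cells in DMSO and 100% = ciliumless bld1 mutant cells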
RUN PARAMETERS: OD600 absorbance, 2 days, at 10 µM
Calls of active or inactive are those of the source.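 How the source made its calls: active means inhibition at or above 50% relative to wild type and mutant plate controls; inactive means inhibition below 50%.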
Please state which outcome applies, choosing from T = active, F = inactive

# MOLECULE, CLASS NAME
data = [
    ("Oc1ccc(C=Nc2ccc3ncccc3c2)c(O)c1", "F"),
]

Continue with the next molecule.
Inquiry: # lookup: test call for COC(=O)c1ccc(OC(=O)c2ccc(OC)c(OC)c2)c(OC)c1
Reply text: F

====

ASSAY SYSTEM: Solute carrier family 12 member 5 (Homo sapiens)
ASSAY METHOD TEXT: KCC2 inhibitors and activators, ouabain retest, confirmation, HEK-KCC2 cells (AID 1717);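 note: slope of initial-normalized fluorescence between seconds 10 and 20 after thallium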
RUN PARAMETERS: HEK293-KCC2, thallium flux FluoZin2 fluorescence, at 10 µM, bidirectional: low = inhibitor, high = activator
This is one part of the list. Records with an inconclusive call do not appear. The source made the active and inactive calls.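 Rule for the calls: active = thallium flux slope beyond 3 SD from same-plate DMSO control mean in most replicates, usually higher, sometimes lower; inconclusive = repeat tests gave conflicting results; inactive = no significant difference from controls in most replicates.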
Select the matching outcome among 1 (yes) = active, 0 (no) = inactive

# COMPOUND, CLASS NAME
measured = [
    ("Cc1ccc(C)c(NC(=S)NNC(=S)Nc2ccc(C(C)C)cc2)c1", "1 (yes)"),
    ("COc1cccc(-c2nc(S(=O)(=O)c3ccccc3)c(N3CCOCC3)o2)c1", "0 (no)"),
    ("Cc1ccc(N2C(=O)C(Cc3ccccc3)NC2=S)cc1 (stereo unspecified)", "0 (no)"),
    ("CCOC(=O)c1c(C)[nH]c(C)c1C(=O)CSc1nc(N)cc(N)n1", "0 (no)"),
]

Inquiry: Please indicate how the test categorized O=C(O)CS/C(=C\c1ccc(F)cc1)c1nc2ccccc2s1 .
Reply text: 1 (yes)

Inquiry: Please state the recorded outcome for this compound: Cc1ccc(/C=N/NC(=S)NC2CCCCC2)o1
Reply text: 1 (yes)

====

Recorded inhibition values for a group of compounds are listed next.
ASSAY METHOD TEXT: inhibitors of Chlamydomonas gravitaxis, primary screen, whole organism, Chlamydomonas reinhardtii, WT vs cilia-less mutant, absorbance, 96-well (AID 463189);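 note: 0% = wild type cc124 cells in DMSO and 100% = ciliumless bld1 mutant cells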
RUN PARAMETERS: OD600 absorbance, 2 days, at 10 µM, stronger effect = higher value
Please reply with the bare figure in % and do not write the unit itself.

# COMPOUND, inhibition, %
data = [
    ("O=C(Nc1nccs1)NC(C(F)(F)F)C(F)(F)F", 28.7),
]

Cc1cc2c(c(=O)n1CC1CCCO1)C(c1ccc3c(c1)OCO3)C(C#N)=C(N)O2 (centres undefined) yielded inhibition of -9.27

Reported inhibition for CCOC(=O)C1(c2nc(N)cs2)COC(=O)C1 (centres undefined) was -13.2

Kindly note the recorded inhibition for CCCCNC(=O)C(C#N)c1nc2ccccc2nc1N1CCN(Cc2ccc3c(c2)OCO3)CC1 (centres undefined) , which is 12.9

Lab note: CCCOc1ccc(/C(O)=C2/C(=O)C(=O)N(CCN3CCOCC3)C2c2ccccc2)cc1 (centres undefined) gave inhibition of -3.19

inhibition recorded for this compound, Cn1c(=O)n(C)c2cc(C(=O)c3ccccc3)ccc21 , is -6.61

Reported inhibition for CC(C)Cc1nc(N2CCCCC2)c(C#N)c2c1CCC2 was -3.52

Note to self: inhibition recorded for CCC1SC(N)=NC1=O (centres undefined) was 13.5

Consider CC1(C)Cc2c(c(-c3ccccc3)[nH]c(=O)c2C#N)CS1 . Its measured inhibition is -6.24

Lab note: measured inhibition of CCOc1ccc(C2C(C(=O)c3ccc(C)o3)=C(O)C(=O)N2CCN2CCOCC2)cc1OC (centres undefined) was -15.3

The recorded inhibition for CN(C)C(CN1C(=O)C2CC=CCC2C1=O)c1cn(C)c2ccccc12 (centres undefined) is -7.45

Lookup result for COC(=O)COn1c(SCC(=O)OC)nc2ccccc2c1=O ; measured inhibition: -12.1

Sample Cc1ccc2c(c1)C(CCN)C(=O)N2Cc1ccccc1 (centres undefined) ; inhibition observed: 9.26

response.value for COc1cccc(NC(=O)CSC2=C(C#N)C(c3ccco3)C3=C(CCCC3=O)N2)c1 (centres undefined) (field: inhibition) = 2.98

Entry O=C1C2CC=C(Cl)CC2C(=O)N1CNc1ccccn1 (centres undefined) — recorded inhibition = -11.9

inhibition recorded for this compound, CCOC(=O)C1Cc2c([nH]c3ccccc23)C(C)N1 (centres undefined) , is -12.3

get_value(item= COC(=O)C(NC(C)=O)(Nc1ccccc1)C(=O)OC , readout=inhibition) returns 2.12

Short answer for CCOC(=O)c1[nH]c2cc(OC)c(OC)cc2c1NC(=O)C(C)N1CCN(Cc2ccccc2)CC1 (centres undefined) : inhibition was 19.7

Each recorded value in this set is attributed to PubChem BioAssay.
